- System: SK-MEL-5
- ASSAY REMARKS: NCI tumour cell line growth inhibition, 48 h
Calls of active or inactive are those of the source. Rule as the data show it: active = GI50 up to about 1.1 µM and inactive = higher.
Give one outcome, nothing more. List: yes (1) (active), no (0) (inactive)

Answered cases to consult:
{"MOLECULE": "Clc1ncnc2c1nc(C#Cc1ccccc1)n2C1CCCCO1 (stereo unspecified)", "TARGET UNDER TEST": "SK-MEL-5", "QUALITATIVE LABEL": "no (0)"}
{"MOLECULE": "CC1CC(N)=Nc2ccccc2N1 (stereo unspecified)", "TARGET UNDER TEST": "SK-MEL-5", "QUALITATIVE LABEL": "no (0)"}
{"MOLECULE": "Cn1c(=O)nc2n(-c3ccc(Cl)cc3)c3cc(Cl)ccc3nc-2c1=O", "TARGET UNDER TEST": "SK-MEL-5", "QUALITATIVE LABEL": "no (0)"}
{"MOLECULE": "COc1ccc2oc(=O)c(CC=C(C)C)c(O)c2c1C", "TARGET UNDER TEST": "SK-MEL-5", "QUALITATIVE LABEL": "no (0)"}
{"MOLECULE": "CSC(=S)Nc1cc(C)cc(C)n1", "TARGET UNDER TEST": "SK-MEL-5", "QUALITATIVE LABEL": "no (0)"}

Which outcome was assigned to O=C1/C(=C/C=C/c2ccccc2)CCC1CNc1ccc(Br)cc1 (stereo unspecified) in this test?
no (0)

Now consider COc1ccc(Br)c(N/N=C2\CCCNC2=O)c1 .
no (0)

Now consider COc1cc(C2c3cc4c(cc3OC(N3CCNCC3)C2C)OCO4)cc(OC)c1OC (stereo unspecified) .
yes (1)
